meta.source: patent US20240284907A1

Tested on: Seeds of Lettuce R. (Super-Jericho)
Experiment: Filter paper bioassay with lettuce seeds: germination and early plant development, Minimal Effective Concentration (MEC)
Format: in vivo
Conditions: lettuce seeds on filter paper, 0 to 1 mmol/l, visually assessed after 6 days
Outcome Measure: Score (activity score of Minimal Effective Concentration, MEC)

Example entries and their recorded answers appear below.
• NCCc1ccsc1 = weak
• O=C(Cc1ccccc1)NCCc1cc(Cl)sc1Cl = Moderate (0.1 mM)
• CC(=O)Nc1nc(Cl)sc1Cl = Moderate (0.1 mM)
• O=C(NCC(F)(F)C(=O)O)c1ccnc(Br)c1 = Strong (0.01 mM)
• OCC(F)(F)c1cccc(Br)n1 = Moderate (0.1 mM)
• CCOC(=O)C(F)(F)c1cc(Cl)sc1Cl = Moderate (0.1 mM)

Input line: Quote Score (activity score of Minimal Effective Concentration, MEC) reported for O=C(O)C(F)(F)c1ccsc1C(F)(F)F please.
Output line: Strong (0.01 mM)
